Hey, just so you know, these numbers are from patent US20120058118A1.

- system-name: T1, human A-beta(1-40) peptide, monomeric (BAM) (human, biotin at the C-terminus in capture ELISA, SPR and TR-FRET; not biotinylated where coated directly (Example 7))
- T1 construct: synthetic peptide (Anaspec), TFA/HFIP treated to give monomer; also called monomeric A-beta
- method-summary: TR-FRET competition, labelled ABII60A10
Recorded measurements of pIC50, one per entry
Value format note: pIC50 is -log10 of concentration (mol/L); just state the number.

Some solved entries appear below for comparison.
ABII60G11 (VHH) VHH: EVQLVESGGGSEQAGGSLRLSCATSGRAFSVYAWFRQAPGKERTFVAAVAWVGGSTFYSDSVKGRFTISRDNAKNTVFLHMNSLKPEDTAAYYCAARLYGGRWYNSPRVDDFEYWGQGTQVTVSS ... 7.46
ABII14D4 (VHH) VHH: EVQLVESGGGLVQAGGSLRLSCAASGRTFSTYNMAWFRHAPGKEREFVAAISRSGGSTYYVDSVKGRFTISRDNAKNTVYLQMNSLKPEDTAIYYCAAAPRGRSIVTTATYDYWGQGTQVTVSS ... 6.13
ABII42B10 (VHH) VHH: EVQLVESGGGLVQRGGSLRLSCAASGRTFSNLNMGWFRQAPGKEREFQAAISRSGGTTYYADSVKGRFTISRDNAKSTVFLQMNSLKPEDTAVYYCAAASPGGPINYGRAYDSWGQGTQVTVSS ... 7.07
Fab fragment of monoclonal antibody m266 (Fab, V domains shown, also called Fab266; m266Fab) VH: EVKLVESGGGLVQPGGSLKLSCAVSGFTFSRYSMSWVRQTPEKRLELVAQINSVGNSTYYPDTVKGRFTISRDNAEYTLSLQMSGLRSDDTATYYCASGDYWGQGTTLTVSS VL: DVVMTQTPLSLPVSLGDQASISCRSSQSLIYSDGNAYLHWFLQKPGQSPKLLIYKVSNRFSGVPDRFSGSGSGTDFTLKISRVETEDLGVYFCSQSTHVPWTFGGGTKLEIK ... 9.28

We next turn to a different binder, shown below.
# input Name the recorded pIC50 of the item ABII60A10 = ABII050 (VHH) VHH: EVQLVESGGGLVQAGGSLRLSCAASGRTFNNYNMGWFRQAPGKEREFVAAVSRSGVSTYYADSVKGRFTISRDNAKNAVYLQMNSLKPEDTAIYYCGAAYRGTAINVRRSYDSWGQGTQVTVSS in your answer.
# output 7.95
